- assayed-system: T1, human TL1A extracellular domain with N-terminal HIS and FLAG tag (human, UniProt O95150 72-251)
- T1 construct: the whole entry is named
- T1 sequence: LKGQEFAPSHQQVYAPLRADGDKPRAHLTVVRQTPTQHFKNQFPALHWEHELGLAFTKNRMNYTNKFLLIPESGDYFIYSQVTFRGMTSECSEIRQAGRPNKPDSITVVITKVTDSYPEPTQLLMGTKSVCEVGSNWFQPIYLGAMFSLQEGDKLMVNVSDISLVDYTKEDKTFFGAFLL
- assay-protocol: SPR Run 6, purified Ab captured on Protein A, TL1A 5 ug/mL, timepoint 170
quantity-measured: TL1A Binding Level (Late) (RU)

# binder, quantity-measured, observed-result
data = [
    ("320-439 (antibody, human IgG1, name in Kabat numbering, V domains shown, human IgG1, lambda) VH: QVQLVQSGAEVKKPGASVKVSCKASGYTFTSSDINWVRQAPGQGLEWMGWLNPNSGNTGYAQKFQGRVTMTADRSTSTAYMELSSLRSEDTAVYYCAREVPETAAFEYWGQGTLVTVSS VL: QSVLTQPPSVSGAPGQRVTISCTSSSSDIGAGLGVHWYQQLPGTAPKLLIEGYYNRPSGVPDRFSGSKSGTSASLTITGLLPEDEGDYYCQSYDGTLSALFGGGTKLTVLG", "TL1A Binding Level (Late)", 108),
    ("320-443 (antibody, human IgG1, name in Kabat numbering, V domains shown, human IgG1, lambda) VH: QVQLVQSGAEVKKPGASVKVSCKASGYTFTSKDINWVRQAPGQGLEWMGWLNPNSGNTGYAQKFQGRVTMTADRSTSTAYMELSSLRSEDTAVYYCAREVPETAAFEYWGQGTLVTVSS VL: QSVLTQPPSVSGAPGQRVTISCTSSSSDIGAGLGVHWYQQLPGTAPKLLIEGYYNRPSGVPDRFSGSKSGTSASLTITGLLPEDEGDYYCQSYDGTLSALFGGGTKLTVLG", "TL1A Binding Level (Late)", 103),
    ("320-452 (antibody, human IgG1, name in Kabat numbering, V domains shown, human IgG1, lambda) VH: QVQLVQSGAEVKKPGASVKVSCKASGYTFTSYWINWVRQAPGQGLEWMGWLNPNSGNTGYAQKFQGRVTMTADRSTSTAYMELSSLRSEDTAVYYCAREVPETAAFEYWGQGTLVTVSS VL: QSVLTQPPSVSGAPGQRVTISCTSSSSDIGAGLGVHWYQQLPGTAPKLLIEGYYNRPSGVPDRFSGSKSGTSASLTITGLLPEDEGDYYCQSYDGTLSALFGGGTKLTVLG", "TL1A Binding Level (Late)", 78),
]
